test: Inhibition of HDAC in human HeLa nuclear extract using Boc-Lys (acetyl)-AMC as substrate preincubated for 1 hr followed by substrate addition measured after 1 hr by fluorescence assay
pIC50: −log10 of the molar value.
measureName: pIC50

Nc1ccc(-c2cccs2)cc1NC(=O)c1ccc(CNC(=O)CN2C(=O)C3(OCCCO3)c3cc(Cl)ccc32)cc1 | < 4.00
Nc1ccccc1NC(=O)c1ccc(NC(=O)CN2C(=O)C3(OCCO3)c3cc(F)ccc32)cc1 | < 5.22
Nc1ccc(-c2ccccc2)cc1NC(=O)c1ccc(CNC(=O)CN2C(=O)C3(OCCCO3)c3cc(Cl)ccc32)cc1 | < 4.00
Nc1ccc(-c2cccs2)cc1NC(=O)c1ccc(CNC(=O)CN2C(=O)C3(OCCO3)c3cc(Cl)ccc32)cc1 | < 4.00
Nc1cc(F)ccc1NC(=O)c1ccc(CNC(=O)CN2C(=O)C3(OCCCO3)c3cc(Br)ccc32)cc1 | < 4.00

The reported value for Nc1ccc(-c2ccccc2)cc1NC(=O)c1ccc(CNC(=O)CN2C(=O)C3(OCCO3)c3cc(Cl)ccc32)cc1 in terms of pIC50 is < 4.00
